Tested on: HOP-62 NSCLC
protocolText: NCI tumour cell line growth inhibition, 48 h

{"compound": "N=c1ccn(O)cc1/C=C1/C(=O)Nc2ccccc21", "GI50": "> 100 µM"}
{"compound": "Cn1c2c(c3ccc([N+](=O)[O-])cc3c1=O)C(=O)c1ccccc1-2", "GI50": "> 100 µM"}
{"compound": "C=CC(=O)Nc1cc(C)ccc1Nc1nc(Nc2cc(OC)ncc2C)ncc1C(F)(F)F", "GI50": "0.741 µM"}
{"compound": "[N-]=[N+]=NCCCCCC(=O)OC(C(=O)c1ccccc1)c1cccc(OCC(=O)NCCOCCOCCNC(=O)CCCC[C@@H]2SC[C@@H]3NC(=O)N[C@@H]32)c1 (stereo not given in full)", "GI50": "> 100 µM"}
{"compound": "CCC[CH2][Sn]1([CH2]CCC)[O]CC(CN(C)Cc2ccccc2)[O]1 (stereo not given)", "GI50": "14.1 µM"}
{"compound": "NCCCCCCCn1c2c(c3ccccc3c1=O)C(=O)c1ccccc1-2", "GI50": "1.36 µM"}
{"compound": "Cc1csc(/C=C/C(=O)c2nnn(-c3ccnc4c(C(F)(F)F)cccc34)c2C)c1", "GI50": "> 100 µM"}
{"compound": "CC(C)(C)c1cc(-n2c(-c3ccc(Cl)cc3)nc3cc(C(=O)Nc4ccc(Cl)cc4)ccc32)n[nH]1", "GI50": "14.1 µM"}
{"compound": "CC(C)([NH-])CO.CC(C)([NH-])CO.[Cl][Cd][Cl]", "GI50": "> 100 µM"}
{"compound": "O=C(c1ccccc1)C1OC1c1ccc([N+](=O)[O-])cc1 (stereo not given)", "GI50": "4.76 µM"}
{"compound": "C=C1CCC2C3(C)COC(c4ccccc4)OC3CCC2(C)C1/C=C/C1=CCOC1=O (stereo not given)", "GI50": "22.9 µM"}
{"compound": "CC(=O)c1c(C)[nH]c(-c2nc3ccc(N4CCN(C)CC4)cc3[nH]2)c1-c1ccc(N(C)C)cc1", "GI50": "0.56 µM"}
{"compound": "Clc1ccc(-c2c3c(nn2-c2ccccn2)CCc2ccccc2-3)cc1Cl", "GI50": "50.2 µM"}
{"compound": "c1ccc(CN2COc3c(ccc4c3OCN(Cc3ccccc3)C4)C2)cc1", "GI50": "0.545 µM"}
{"compound": "Cc1nc2ccccc2c(/C=C/c2ccc(Cl)cc2)c1C(=O)/C=C/c1ccc(C(F)(F)F)cc1", "GI50": "0.877 µM"}
{"compound": "O=C1C=CC(=Nc2cc(Br)c(O)c(Br)c2)C=C1", "GI50": "28.4 µM"}
{"compound": "Nc1c(C(=O)Nc2cccc(F)c2)sc2nc3c(cc12)C(=O)CCC3", "GI50": "0.685 µM"}
{"compound": "CCC/C(=N\\NC(=S)N1CC2CCC(CC2)C1)c1ccccn1", "GI50": "1.16 µM"}
{"compound": "C[C@@]12CCC[C@@](C)(C(=O)O)C1CC[C@]13C[C@@](O)(CO)[C@](O)(CCC12)C3 (stereo not given in full)", "GI50": "> 100 µM"}
{"compound": "CCOC(=O)c1cc2c(cc1Cl)SC(N(c1ccc(OC)cc1)S(=O)(=O)c1ccc(Cl)cc1)=NS2(=O)=O", "GI50": "> 100 µM"}
